Just for reference, ChEMBL document CHEMBL2321866 is where these values come from.

Target: Cannabinoid receptor 2 (Homo sapiens, UniProt P34972)
Sequence (P34972 whole entry): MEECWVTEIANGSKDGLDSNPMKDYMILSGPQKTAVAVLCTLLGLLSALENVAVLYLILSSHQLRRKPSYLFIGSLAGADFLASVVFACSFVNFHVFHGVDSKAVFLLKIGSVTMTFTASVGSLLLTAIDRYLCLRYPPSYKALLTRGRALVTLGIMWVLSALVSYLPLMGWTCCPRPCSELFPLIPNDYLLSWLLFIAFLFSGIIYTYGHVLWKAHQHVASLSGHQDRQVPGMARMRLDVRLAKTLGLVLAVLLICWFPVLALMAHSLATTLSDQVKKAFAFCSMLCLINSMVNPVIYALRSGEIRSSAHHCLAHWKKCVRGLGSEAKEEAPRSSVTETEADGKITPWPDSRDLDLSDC
Assay: Displacement of [3H]CP-55,940 from CB2 receptor (unknown origin) after 1 hr by scintillation counting analysis
Conditions: read-out: Ki
Category key, based on recorded Ki: bin 1: < 0.01 µM; bin 2: ≥ 0.01 µM and < 0.2 µM; bin 3: ≥ 0.2 µM

Please review the following examples before continuing.
CCCCCCCN(Cc1ccc(N(CC)CC)cc1)S(=O)(=O)c1ccc(OC)cc1 ... bin 3
CCCCCCCN(Cc1ccc(N(CC)CC)cc1)S(=O)(=O)c1ccc(C(C)C)cc1 ... bin 3
CCCCCCCN(Cc1ccc(N(CC)CC)cc1)C(=O)Cc1ccc(Cl)cc1 ... bin 3
CCN(CC)c1ccc(CN(c2ccc(C)cc2)S(=O)(=O)c2ccc(C(C)C)cc2)cc1 ... bin 1
CCN(CC)c1ccc(CN([C@]23C[C@H]4C[C@H](C[C@H](C4)C2)C3)S(=O)(=O)c2ccccc2)cc1 ... bin 2
CCN(CC)c1ccc(CN(c2ccc(C)cc2)S(=O)(=O)c2ccc(C)cc2)cc1 ... bin 1
CCN(CC)c1ccc(CN(c2ccc(C)cc2)S(=O)(=O)c2cccc(C)c2)cc1 ... bin 1
CCN(CC)c1ccc(CN([C@]23C[C@H]4C[C@H](C[C@H](C4)C2)C3)S(=O)(=O)c2ccc(OC)cc2)cc1 ... bin 2

Exercise: For the record CCCCCCCC(=O)N(CCCCCCC)Cc1ccc(N(CC)CC)cc1 , report the class its Ki corresponds to.
Key: bin 3

Exercise: For the record CCN(CC)c1ccc(CN(C(=O)Cc2ccccc2)[C@]23C[C@H]4C[C@H](C[C@H](C4)C2)C3)cc1 , report the class its Ki corresponds to.
Key: bin 2

Exercise: For the record CCN(CC)c1ccc(CN(C(=O)C2CCCCC2)c2ccc(C)cc2)cc1 , report the class its Ki corresponds to.
Key: bin 3

Exercise: For the record CCN(CC)c1ccc(CN(C(=O)Cc2ccc(Cl)cc2)c2ccc(C)cc2)cc1 , report the class its Ki corresponds to.
Key: bin 2

Exercise: For the record CCCCCCCN(Cc1ccc(N(CC)CC)cc1)S(=O)(=O)c1ccc(Cl)cc1 , report the class its Ki corresponds to.
Key: bin 3

Exercise: For the record CCN(CC)c1ccc(CN(c2ccc(Cl)cc2)S(=O)(=O)c2ccc(OC)cc2)cc1 , report the class its Ki corresponds to.
Key: bin 2

Exercise: For the record CCN(CC)c1ccc(CN(c2ccc(Cl)cc2)S(=O)(=O)c2cccc(C)c2)cc1 , report the class its Ki corresponds to.
Key: bin 1

Exercise: For the record CCN(CC)c1ccc(CN(c2ccc(Cl)cc2)S(=O)(=O)c2ccc(F)cc2)cc1 , report the class its Ki corresponds to.
Key: bin 2

====

Target: Cannabinoid receptor 2 (Homo sapiens)
Experiment: Displacement of [3H]CP-55,940 from CB2 receptor (unknown origin) after 1 hr by scintillation counting analysis
Details: read-out: Ki
Sorting guide: entries reporting Ki beneath 7 µM go in the true pile, the rest go in the false pile.

CCN(CC)c1ccc(CN([C@]23C[C@H]4C[C@H](C[C@H](C4)C2)C3)S(=O)(=O)c2ccc(C(C)C)cc2)cc1 ... true
CCCCCCCN(Cc1ccc(N(CC)CC)cc1)C(=O)c1ccc(N(C)C)cc1 ... true
CCN(CC)c1ccc(CN(c2ccc(C)cc2)S(=O)(=O)c2ccc(OC)cc2)cc1 ... true
CCN(CC)c1ccc(CNc2ccc(Cl)cc2)cc1 ... true
CCN(CC)c1ccc(CN[C@]23C[C@H]4C[C@H](C[C@H](C4)C2)C3)cc1 ... false

Okay, next one:
Exercise: API: query returns whether the compound falls strictly under 7 µM in Ki. Query: CCN(CC)c1ccc(CN(C(=O)Cc2ccc(Cl)cc2)c2ccc(Cl)cc2)cc1
Key: true
